# Target: Cytochrome P450 2D6 (Homo sapiens) (UniProt P10635)
# Sequence (P10635 whole entry, looked up): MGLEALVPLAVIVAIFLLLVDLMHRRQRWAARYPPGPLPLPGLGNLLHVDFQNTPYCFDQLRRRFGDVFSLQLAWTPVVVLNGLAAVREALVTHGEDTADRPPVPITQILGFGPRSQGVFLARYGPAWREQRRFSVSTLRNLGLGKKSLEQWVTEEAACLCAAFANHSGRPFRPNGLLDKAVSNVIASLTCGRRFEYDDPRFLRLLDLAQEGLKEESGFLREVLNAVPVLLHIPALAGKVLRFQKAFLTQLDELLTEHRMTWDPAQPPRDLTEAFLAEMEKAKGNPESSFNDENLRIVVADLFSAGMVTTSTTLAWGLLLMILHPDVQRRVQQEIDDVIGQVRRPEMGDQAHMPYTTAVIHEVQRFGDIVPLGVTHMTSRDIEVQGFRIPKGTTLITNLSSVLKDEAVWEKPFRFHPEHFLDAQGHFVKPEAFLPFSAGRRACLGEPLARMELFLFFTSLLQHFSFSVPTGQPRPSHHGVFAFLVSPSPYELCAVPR
# Experimental protocol: Cytochrome panel assay with activity outcomes
# Condition: recombinant CYP, pro-luciferin dealkylation, luminescence, p450-cyp2d6; series mostly up to 57.1 µM
Screen size: about 16,000 compounds; about 2,600 (16%) were called active. Inconclusive results (about 20%) are left out. Calls follow the shape of the dose curve; as a rule, active = well fitted curve in the direction sought with a large enough effect; inconclusive = small, poorly fitted or top-dose-only effect, or effect the other way; inactive = no such curve, though single readings can be large or run the other way. These entries were drawn from the full list.
Outcome field: choose from 1 = active, 0 = inactive

Example cases with answers are listed next.
{"Smiles str": "COC(=O)[C@@H]1[C@@H]2C[C@H]3c4[nH]c5cc(OC)ccc5c4CCN3C[C@@H]2C[C@H](OC(=O)c2cc(OC)c(OC)c(OC)c2)[C@H]1OC", "Class": 0}
{"Smiles str": "CCC(CC)C(=O)NCCN1CCN(C(=O)C(CC)CC)CC1", "Class": 0}
{"Smiles str": "CC(C)(C)N(NC(=O)Nc1ccccc1)C(=O)c1ccccc1Cl", "Class": 0}
{"Smiles str": "Cc1cc(C)cc(C(=O)N(NC(=O)Nc2ccc(Cl)cc2)C(C)(C)C)c1", "Class": 0}
{"Smiles str": "CCc1c(C)nc(N)n2c(SCC(=O)Nc3ccccc3)nnc12", "Class": 1}
{"Smiles str": "COc1cc(/C=C2\\SC(=S)N(Nc3ccccc3)C2=O)cc(OC)c1OC", "Class": 0}
{"Smiles str": "O=C(NCCN1CCCCC1)c1ccc(I)cc1", "Class": 1}
{"Smiles str": "Cc1ccc(C(=O)NCCNC(=O)CN2CCOCC2)cc1", "Class": 0}
{"Smiles str": "CC(C)(C)N(NC(=O)Nc1ccc(Cl)c(Cl)c1)C(=O)c1ccccc1", "Class": 1}

-- ask Tell me the assay call for `Cc1ccccc1OCC(=O)NC(=S)Nc1ccc(N2CCOCC2)c(Cl)c1` please.
-- reply 0

----------
# Target: Cytochrome P450 2D6 (Homo sapiens) (UniProt P10635)
# Experimental protocol: Cytochrome panel assay with activity outcomes
# Condition: recombinant CYP, pro-luciferin dealkylation, luminescence, p450-cyp2d6; series mostly up to 57.1 µM
Out of some 16,000 compounds screened, about 2,600 (16%) were called active. Not shown: some 20% with an inconclusive outcome. Calls come from the whole dose curve; as a rule, active = well fitted curve in the direction sought with a large enough effect; inconclusive = small, poorly fitted or top-dose-only effect, or effect the other way; inactive = no such curve, though single readings can be large or run the other way. A selection follows.
Outcome field: choose from active, inactive

Example cases with answers are listed next.
{"Compound": "CC(=O)N1CCC2(CCCN(c3ccccn3)C2)CC1", "Class": "inactive"}
{"Compound": "Cn1cccc1C(=O)N1CCC2(CCN(C(=O)Nc3cccc(F)c3)CC2)CC1", "Class": "inactive"}

-- ask Tell me the assay call for `Cc1cc(C)cc(Oc2coc3cc(OC(=O)c4cccs4)ccc3c2=O)c1` please.
-- reply inactive

-- ask Tell me the assay call for `CC(=O)c1cn(CC(=O)Nc2c(C)cccc2C)c2ccccc12` please.
-- reply active

-- ask Tell me the assay call for `Cc1cccc(C)c1NC(=O)C[N+](C)(C)C` please.
-- reply inactive

----------
# Target: Cytochrome P450 2D6 (Homo sapiens) (UniProt P10635)
# Experimental protocol: Cytochrome panel assay with activity outcomes
# Condition: recombinant CYP, pro-luciferin dealkylation, luminescence, p450-cyp2d6; series mostly up to 57.1 µM
About 2,600 (16%) of roughly 16,000 compounds were called active. Roughly 20% stayed inconclusive and do not appear here. Calls follow the shape of the dose curve; as a rule, active = well fitted curve in the direction sought with a large enough effect; inconclusive = small, poorly fitted or top-dose-only effect, or effect the other way; inactive = no such curve, though single readings can be large or run the other way. A selection follows.
Outcome field: choose from Y = active, N = inactive

Example cases with answers are listed next.
{"Compound": "COCCNc1ncnc2ccc(-c3ccc(C(=O)N(C)C)cc3)cc12", "Class": "N"}
{"Compound": "COc1ccc(N2CCN(CCNC(=O)C3CCN(S(=O)(=O)c4cccs4)CC3)CC2)cc1", "Class": "N"}
{"Compound": "Cc1cc(C2CCCCC2)n(O)c(=O)c1", "Class": "N"}
{"Compound": "Cc1ccc2cc(C(=O)O)c(C)nc2c1", "Class": "N"}
{"Compound": "O=C(Oc1ccc(OC(=O)c2ccco2)c(S(=O)(=O)c2ccc(Br)cc2)c1)c1ccco1", "Class": "N"}

-- ask Tell me the assay call for CCCCOC(=O)C1=C(C)Nc2ncnn2C1c1cc(OC)ccc1OC (stereo not given) please.
-- reply N

-- ask Tell me the assay call for `COCCCNC(=O)C1CCN(S(=O)(=O)N(CC(C)C)CC(C)C)CC1` please.
-- reply N

-- ask Tell me the assay call for `CCCc1cc2c(cc1NC(=O)c1ccccc1C)OCO2` please.
-- reply Y

-- ask Tell me the assay call for `Cc1ccc(-n2nnnc2SCC(=O)NNC(=O)c2ccco2)c(C)c1` please.
-- reply N

-- ask Tell me the assay call for `NC(=O)C1(N2CCCCC2)CCN(C(=S)Nc2ccc(Cl)cc2)CC1` please.
-- reply N

----------
# Target: Cytochrome P450 2D6 (Homo sapiens) (UniProt P10635)
# Experimental protocol: Cytochrome panel assay with activity outcomes
# Condition: recombinant CYP, pro-luciferin dealkylation, luminescence, p450-cyp2d6; series mostly up to 57.1 µM
Hit rate of the full screen: of about 16,000 compounds, about 2,600 (16%) were called active. Inconclusive results (about 20%) are left out. Calls come from the whole dose curve; as a rule, active = well fitted curve in the direction sought with a large enough effect; inconclusive = small, poorly fitted or top-dose-only effect, or effect the other way; inactive = no such curve, though single readings can be large or run the other way. Not all results are given here.
Outcome field: choose from t (active), f (inactive)

Example cases with answers are listed next.
{"Compound": "O=C(CN1CCCC1)N/N=C/c1ccc(-c2cccc(Cl)c2)o1", "Target": "Cytochrome P450 2D6 (Homo sapiens) (UniProt P10635)", "Class": "f"}
{"Compound": "COc1cccc(-c2nccc(-n3ccnc3)n2)c1", "Target": "Cytochrome P450 2D6 (Homo sapiens) (UniProt P10635)", "Class": "t"}
{"Compound": "O=C(/C=C/c1cccc([N+](=O)[O-])c1)NCCN1CCOCC1", "Target": "Cytochrome P450 2D6 (Homo sapiens) (UniProt P10635)", "Class": "f"}

-- ask Tell me the assay call for `CN(C)CCOC(=O)C1(c2ccccc2)CCOCC1` please.
-- reply f

-- ask Tell me the assay call for `COc1cccc(-c2cncnc2-n2ccnc2)c1` please.
-- reply t

-- ask Tell me the assay call for `CN1CCN(c2ccnc(-c3cccc(NS(C)(=O)=O)c3)n2)CC1` please.
-- reply f

----------
# Target: Cytochrome P450 2D6 (Homo sapiens) (UniProt P10635)
# Experimental protocol: Cytochrome panel assay with activity outcomes
# Condition: recombinant CYP, pro-luciferin dealkylation, luminescence, p450-cyp2d6; series mostly up to 57.1 µM
About 2,600 (16%) of roughly 16,000 compounds were called active. Inconclusive results (about 20%) are left out. Calls come from the whole dose curve; as a rule, active = well fitted curve in the direction sought with a large enough effect; inconclusive = small, poorly fitted or top-dose-only effect, or effect the other way; inactive = no such curve, though single readings can be large or run the other way. A selection follows.
Outcome field: choose from active, inactive

{"Compound": "Cc1ccc(/C=N/n2cnnc2)s1", "Class": "inactive"}
{"Compound": "Cc1ccc(/C=N\\Nc2nc3ccc(Cl)cc3[nH]2)o1", "Class": "active"}
{"Compound": "COC(=O)[C@@]1(Cc2ccc(F)cc2)[C@H]2c3cc(C(=O)N4CCCC4)n(CCc4ccc(OC)c(Br)c4)c3C[C@H]2CN1C(=O)c1ccccc1", "Class": "inactive"}
{"Compound": "Cc1ccc(/C=N/NC(=O)Cn2nccc2C)o1", "Class": "inactive"}
{"Compound": "COC(=O)C(CCSC)NC(=O)c1cccc([N+](=O)[O-])c1 (stereo not given)", "Class": "inactive"}

-- ask Tell me the assay call for `Cc1ccc(-n2c(-c3ccc(Br)cc3)c[n+]3c2CCc2ccc4cccnc4c2-3)cc1` please.
-- reply active

-- ask Tell me the assay call for `COC(=O)[C@@]1(Cc2ccc(F)cc2)[C@H]2c3cc(C(=O)N4CCCC4)n(Cc4ccccn4)c3C[C@H]2CN1C(=O)c1ccccc1` please.
-- reply inactive

-- ask Tell me the assay call for `COC(=O)[C@@]1(Cc2ccccc2)[C@H]2c3cc(C(=O)N4CCCC4)n(Cc4cccc5ccccc45)c3C[C@H]2CN1C(=O)c1ccccc1` please.
-- reply inactive

-- ask Tell me the assay call for `Cc1cc(OC(=O)c2ccccc2Cl)cc(=O)n1C` please.
-- reply inactive

-- ask Tell me the assay call for `CCOC(=O)N/N=C/c1ccc(C)o1` please.
-- reply inactive

----------
# Target: Cytochrome P450 2D6 (Homo sapiens)
# Experimental protocol: Cytochrome panel assay with activity outcomes
# Condition: recombinant CYP, pro-luciferin dealkylation, luminescence, p450-cyp2d6; series mostly up to 57.1 µM
Screen size: about 16,000 compounds; about 2,600 (16%) were called active. Inconclusive results (about 20%) are left out. The call rests on the fitted dose curve; in most records, active means well fitted curve in the direction sought with a large enough effect; inconclusive means small, poorly fitted or top-dose-only effect, or effect the other way; inactive means no such curve, though single readings can be large or run the other way. Only a sample is shown.
Outcome field: choose from T (active), F (inactive)

{"Compound": "O=C(NC(=S)Nc1cccc(Cl)c1N1CCCC1)c1ccc(-c2cccc([N+](=O)[O-])c2)o1", "Class": "F"}
{"Compound": "CCOC(=O)c1c(NC(=S)Nc2ccccc2)sc2c1CCN(CCc1ccccc1)C2", "Class": "T"}
{"Compound": "Cc1nnc(SCC(=O)NCC2CCCCC2)n(N)c1=O", "Class": "F"}
{"Compound": "O=C(c1ccco1)N1CCC2(CC1)CCN(c1ccc(-c3ccccc3)cc1)CC2", "Class": "F"}
{"Compound": "CC(=O)Nc1sc2c(c1C(N)=O)CCCC2", "Class": "F"}

-- ask Tell me the assay call for `CCC(=O)NNc1cc(=O)c2c(=O)n(C)c(=O)n(C)c2[nH]1` please.
-- reply F

-- ask Tell me the assay call for `C/C(CC(=O)Nc1cc(C)ccn1)=N\NC(=O)COc1cccc(C)c1` please.
-- reply F

-- ask Tell me the assay call for `COCCCNC(=O)CCC(=O)Nc1ccc2nc(N3CCOCC3)cc(C)c2c1` please.
-- reply F

-- ask Tell me the assay call for `COc1cccc(Nc2ncc3nc(-c4ccc(F)cc4)c(=O)n(C)c3n2)c1` please.
-- reply F

-- ask Tell me the assay call for `Fc1ccc([C@H]2CCNC[C@H]2COc2ccc3c(c2)OCO3)cc1` please.
-- reply F

-- ask Tell me the assay call for `COc1ccccc1/C=N/NC(=Nc1ccc(C)cc1)c1nc2ccccc2s1` please.
-- reply F

-- ask Tell me the assay call for Cc1ccc(/C(O)=C2/C(=O)C(=O)N(CCCn3ccnc3)C2c2ccccn2)cc1 (centres undefined) please.
-- reply F

-- ask Tell me the assay call for `Brc1ccccc1OCCOCCOc1cccc2cccnc12` please.
-- reply F

-- ask Tell me the assay call for `COc1ccc(-c2noc(N(C)CC(=O)Nc3cccc(C(F)(F)F)c3)n2)cc1` please.
-- reply T
